Overview of reported TGI across a group of molecules:
Test system: M14 melanoma
Test: NCI tumour cell line growth inhibition, 48 h

# count of solved cases: 3
MOLECULE	TGI
Cn1c2ccccc2c2c(=S)c3ccccc3ccc21	> 100 µM
COc1cc2c3c(n(C)c(=O)c2cc1OC)-c1cc2c(cc1C3=O)OCO2	> 100 µM
O=S(=O)(OI(OI(OS(=O)(=O)C(F)(F)F)c1ccccc1)c1ccccc1)C(F)(F)F	> 100 µM

Can you look up the measured TGI of `C[C@@H]1CC[C@H]2[C@H]1[C@H]1[C@@H](CC[C@]2(C)N=C=S)C1(C)C` for me? 78.1 µM

And what about the molecule `O=C(O)c1ccc(CNCc2ccccc2)cc1` ? > 100 µM

---

Overview of reported GI50 across a group of compounds:
Tested on: PC-3 prostate
Assay: NCI tumour cell line growth inhibition, 48 h

COMPOUND	TESTED_TARGET	RESULT
O=c1cccc(C#CC#C[C@@H]2O[C@H]2CO)o1	PC-3 prostate	1820 nM
Nc1nc(Cl)nc2c1ncn2C1CC(O)C(CO)O1 (stereo unspecified)	PC-3 prostate	> 100000 nM
Cc1nc2sccn2c1-c1nc2sccn2c1/C=C1/C(=O)Nc2ccccc21	PC-3 prostate	2320 nM

Can you look up the measured GI50 of `C=C(C)[C@@H]1CC[C@]2(CN)CC[C@]3(C)[C@H](CC[C@@H]4[C@@]5(C)CCCNC(C)(C)[C@@H]5CC[C@]43C)[C@@H]12` for me? 1770 nM

And what about the compound `O=c1[nH]c(O)c(C=Nc2ccc(-c3nc4ccccc4o3)cc2)c(=O)[nH]1` ? > 100000 nM

And what about the compound `Cc1cccc(NC2=C(Cl)C(=O)c3nc(C)ccc3C2=O)c1` ? 1290 nM

And what about the compound `CNCCCNc1ccnc2cc(Cl)ccc12` ? 17900 nM

And what about the compound `Nc1c(C(=O)Nc2ccccn2)sc2nc3c(cc12)C(=O)CCC3` ? 1430 nM

And what about the compound `COc1cc2c(cc1OCCCN1CCN(CCCOc3cc4c(cc3OC)C(=O)N3CC(F)(F)C[C@H]3C=N4)CC1)N=C[C@@H]1CC(F)(F)CN1C2=O` ? 3060 nM

And what about the compound `CCCCCCn1c(-c2ccc(C(=O)O/N=C(\N)c3ccc4c(c3)OCO4)cc2)nc(-c2ccccc2)c1-c1ccccc1` ? 2620 nM

And what about the compound `CCN(Cc1c(F)cccc1OC)c1ccc(CO)c(Cl)c1` ? 17100 nM

---

System: SK-MEL-2 melanoma
Experiment: NCI tumour cell line growth inhibition, 48 h
ASSAY_READOUT: TGI

COMPOUND	TGI
C=C(C)[C@H]1C2=CC(C(=O)OC)=C(C[C@H](C(=C)C)[C@@H](O)[C@@H](O)C3=C[C@H]1OC3=O)O2	> 100 µM
COc1ccc(-c2nc3ccccc3c(=S)n2OC(C)=O)cc1	> 25 µM
C/C(=N\NC(N)=O)c1sc(-c2nc(C)c(/C(C)=N/NC(N)=O)s2)nc1C	> 100 µM
CCN(CC)c1ccc(/C=C/c2ccnc3ccccc23)cc1	> 100 µM
C=CCn1c(=O)ccn(/C(=C/C(=O)OCC)C(=O)OCC)c1=O	34.3 µM

Shifting focus to the compound that follows.
Can you look up the measured TGI of `Cc1nc2ccccc2c(-n2cccn2)c1CCn1cccn1` for me? > 100 µM

---

Tested on: KM12 colon
Experiment: NCI tumour cell line growth inhibition, 48 h
Where a SMILES comes first, the peptide text is derived from it. The star is where a group is joined. Palmitoyl = CCCCCCCCCCCCCCCC(=O)*
ASSAY_READOUT: log10(TGI) (log10 of the value in µM)
// stored as log10 of TGI expressed in µM

# count of solved cases: 6
COMPOUND	TESTED_TARGET	log10(TGI)
CN1CC[C@]2(c3cccc(O)c3)CC(=O)/C(=C/c3ccccc3)[C@@H]1C2	KM12 colon	1.06
NCCCn1c2c(c3ccc([N+](=O)[O-])cc3c1=O)C(=O)c1cc(I)ccc1-2	KM12 colon	0.12
COc1cccc2c1OC(c1cccc3ccccc13)C([N+](=O)[O-])=C2 (stereo not drawn)	KM12 colon	0.48
CCCCOCCOC1=C(Cl)C(=O)c2c(O)ccc(O)c2C1=O	KM12 colon	0.53
O=C1C(=Nc2ccc(Nc3ccccc3)cc2)Oc2ccccc21	KM12 colon	0.61
COc1cc2c(cc1OCCCCCN1CCN(c3ncnc4ccccc34)CC1)N=CC1CCCN1C2=O (stereo not drawn)	KM12 colon	-0.02

Can you look up the measured log10(TGI) of `Oc1oc(C(=C2N=c3ccccc3=N2)c2ccc(Cl)cc2)c(O)c1-c1ccc(Cl)cc1` for me? 1.20

And what about the compound `CCc1c(O)c(O)c(C(C)=O)c2c(O)c(-c3c(C)cc4c(CC)c(O)c(O)c(C(C)=O)c4c3O)c(C)cc12` ? 1.07

And what about the compound CCCCCCCCCCCCCCCC(=O)N1CCCC1C(=O)NCC(=O)NC(Cc1ccccc1)C(=O)N1CCCC1C(=O)NC(CO)C(=O)NC(Cc1ccc(O)cc1)C(=O)NC(CCCCN)C(=O)NC(CC(C)C)C(=O)NC(CCCN=C(N)N)C(=O)N1CCCC1C(=O)NCC(N)=O (stereo not drawn) (Palmitoyl-PGFPSYKLRPG-NH2; configuration not given here) ? 1.10

And what about the compound COC(=O)/C=C/c1cc(OC(C)=O)c2c(c1)C(C(=O)OC)C(c1ccc(OC(C)=O)c(OC(C)=O)c1)O2 (stereo not drawn) ? 1.51

---

Overview of reported GI50 across a group of molecules:
Test system: SF-268 CNS
Assay: NCI tumour cell line growth inhibition, 48 h

# count of solved cases: 4
MOLECULE	RESULT
COc1cccc2c1O/C(=C\c1ccc([N+](=O)[O-])s1)C2=O	2.02 µM
C=CC12CCN(CC1)C(C(O)c1ccnc3ccc(OC)cc13)C2 (stereo not drawn)	> 100 µM
C[C@H](CCOc1cccc(CC(=O)O)c1)N(Cc1cccc(C(F)(F)F)c1Cl)CC(c1ccccc1)c1ccccc1	5.28 µM
COc1cc2c(cc1OCCCN1CCN(CCCOc3cc4c(cc3OC)C(=O)N3CC(F)(F)C[C@H]3C=N4)CC1)N=C[C@@H]1CC(F)(F)CN1C2=O	3.57 µM

Hi! What's the reported GI50 for `NNc1ncnc2nc[nH]c12` on SF-268 CNS? 8.24 µM

And what about the molecule `O=c1cccc(C#CC#C[C@@H]2O[C@H]2CO)o1` ? 1.78 µM

And what about the molecule `COc1ccc(-c2c(C#N)c(N3CCOCC3)nc3[nH]c(=S)[nH]c(=S)c23)cc1OC` ? 31.6 µM

And what about the molecule `CCOC(=O)c1c(C)c2c(n1Cc1ccccc1)CSCC2=O` ? 19.3 µM

---

System: TK-10 renal
Test: NCI tumour cell line growth inhibition, 48 h
ASSAY_READOUT: GI50

# count of solved cases: 3
COMPOUND	ASSAY_READOUT	RESULT
O=C(Nc1ncc(Cc2cccc(C(F)(F)F)c2)s1)c1ccc2c(c1)OCCO2	GI50	0.892 µM
NC(=O)c1cc(I)ccc1NC(=O)/C=C/c1ccccc1	GI50	2.9 µM
COC(=O)/C=C/c1cc(OC(C)=O)c2c(c1)C(C(=O)OC)C(c1ccc(OC(C)=O)c(OC(C)=O)c1)O2 (stereo not drawn)	GI50	8.98 µM

Can you look up the measured GI50 of `O=C(Nc1nc(-c2c[nH]c3ccccc23)cs1)c1n[nH]c(=O)c2ccccc12` for me? 14.4 µM

And what about the compound `COc1ccc(-c2c(C#N)c(N3CCOCC3)nc3[nH]c(=S)[nH]c(=S)c23)cc1OC` ? 34.5 µM

And what about the compound CCCCNCCCNCCCNC(=O)c1csc(-c2csc(CCNC(=O)C(NC(=O)C(C)C(O)C(C)NC(=O)C(NC(=O)c3nc(C(CC(N)=O)NCC(N)C(N)=O)nc(N)c3C)C(OC3OC(CO)C(O)C(O)C3OC3OC(CO)C(O)C(OC(N)=O)C3O)c3cnc[nH]3)C(C)O)n2)n1 (stereo not drawn) ? > 50 µM

And what about the compound `Cc1nc2sccn2c1-c1nc2sccn2c1/C=C1/C(=O)Nc2ccccc21` ? 13.5 µM

And what about the compound `COc1cccc2c1O/C(=C\c1ccc([N+](=O)[O-])s1)C2=O` ? 3.16 µM

---

Test system: MALME-3M melanoma
Test: NCI tumour cell line growth inhibition, 48 h
Overview of reported TGI across a group of compounds:
Write the value in µM as a bare number.

COMPOUND	TGI [µM]
COc1ccc(C(=O)NCCN(C)C)c2nc3ccccc3cc12	2.3

Can you look up the measured TGI of `COC(=O)C1=CN(CC2=CC(=O)C(C)=CC2=O)C=C(C(=O)OC)C1c1ccccc1OC` for me? 33.3

And what about the compound `Cc1cc(C(=O)CSC(=S)SC(C)(C)C)ccc1Cl` ? 33.4

And what about the compound `COc1ccc(NC(=O)CSc2nnc(-c3ccc(NC(C)=O)cc3)o2)cc1` ? 40.8

And what about the compound CC(C)C1=CC23CCC4C(C)(C(=O)O)CCCC4(C)C2CC1C1C(=O)N(CCCCCCN2C(=O)C4C5CC6C7(C)CCCC(C)(C(=O)O)C7CCC6(C=C5C(C)C)C4C2=O)C(=O)C13 (stereo not given) ? 31.2

And what about the compound `C=CCn1c(=O)ccn(/C(=C/C(=O)OCC)C(=O)OCC)c1=O` ? 25.4

Source of measurements: PubChem BioAssay (NCI)
